measuredTarget: T1, human CLEC12A expressed on cells (human, UniProt Q5QGZ9 1-265)
T1 construct: whole, on cells; also called RMA-hCLEC12A; hCLEC12A+Ba/F3
T1 sequence (looked up): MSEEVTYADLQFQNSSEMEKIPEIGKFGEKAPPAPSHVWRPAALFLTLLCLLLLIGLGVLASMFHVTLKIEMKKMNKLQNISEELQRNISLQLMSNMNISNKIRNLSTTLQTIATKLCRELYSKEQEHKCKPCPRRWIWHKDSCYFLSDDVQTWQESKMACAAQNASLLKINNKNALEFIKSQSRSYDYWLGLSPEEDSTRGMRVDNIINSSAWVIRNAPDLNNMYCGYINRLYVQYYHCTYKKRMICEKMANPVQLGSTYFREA
assay: flow cytometry, PL21 cells
valueKind: Max MFI (MFI)
Field: numeric (MFI). Do not append units.

// query Please report the recorded Max MFI for 9F11.B7 (antibody, V domains shown, Murine mAb purified from the hybridoma subclone) VH: EVQLQESGGGLVQPGGSRKLSCAASGFTFNSFGMHWVRQAPEKGLEWVAFISSGSTSIYYANTVKGRFTISRDNPKNTLFLQMTSLRSEDTAMYYCARDGYPTGGAMDYWGQGTSVTVSS VL: DIKMTQSPSSMYASLGERVTITCKASQDIYNYLSWFQLKPGKSPRPLIYRANILVSGVPSKFSGSGSGQDYSLTINSLEYEDLGIYYCLQFDAFPFTFGSGTKLEIK .
// result 217

// query Any idea what its Max MFI is? The binder is 16B8.C8 (antibody, V domains shown, Murine mAb purified from the hybridoma subclone; also called Murine 16B8 mAb; Murine 16B8. mAb) VH: EVQLQESGPGLVQPSQSLSITCTVSGFSLTNYGLHWVRQSPGKGLEWLGVIWSGGKTDYNTPFKSRLSISKDISKNQVFFKMNSLQPNDTAIYFCAKYDYDDSLDYWGQGTSVTVSS VL: DIQMNQSPSSLSASLGDTIAITCHASQNINFWLSWYQQKPGNIPKLLIYEASNLHTGVPSRFSGSGSGTRFTLTISSLQPEDIATYYCQQSHSYPLTFGQGTKLEIK
// result 300

// query Returns the measured Max MFI for the input binder. Input: 9E4.B7 (antibody, V domains shown, Murine mAb purified from the hybridoma subclone) VH: EVQLQESGAELMKPGASVKISCRTTGYTFSTYWIEWVKQRPGRGPEWIGELFPGNSDTTLNEKFTGKATFTADSSSNTAYMQLSSLTSEDSAVYYCARSGYYGSSLDYWGQGTTLTVSS VL: GIVMTQSPASLSASVGETVTITCRAGENIHSYLAWYQQKQGKSPQLLVYNAKTLAEGVPSRFSGSGSGTQFSLKINSLQPEDFGSYYCQHHYGTPRTFGGGTKLEIK
// result 186

// query Could you tell me which Max MFI is on file for Genentech-h6E7 (antibody, V domains shown) VH: EVQLVQSGAEVKKPGASVKVSCKASGYSFTDYYMHWVRQAPGQGLEWIGRINPYNGAAFYSQNFKDRVTLTVDTSTSTAYLELSSLRSEDTAVYYCAIERGADLEGYAMDYWGQGTLVTVSS VL: DIQMTQSPSSLSASVGDRVTITCRASQSVSTSSYNYMHWYQQKPGKPPKLLIKYASNLESGVPSRFSGSGSGTDFTLTISSLQPEDFATYYCQHSWEIPLTFGQGTKVEIK ?
// result 265

Where do these numbers come from? They come from patent US20230220084A1.
